Task for the reader: assign each of the following molecules its reported Ratio.
# Test system: Human immunodeficiency virus type 1
# experiment.notes: Selectivity index is the ratio of CC50 to EC50
# condition.label: Human immunodeficiency virus 1

{"molecule": "CCC(C)Sc1nc(O)c(C)c(CSc2ccccc2)n1 (stereo unspecified)", "system.name": "Human immunodeficiency virus type 1", "measurement.label": "Ratio", "result": 3.3}
{"molecule": "Oc1cc(Cc2ccc3ccccc3c2)nc(SC2CCCC2)n1", "system.name": "Human immunodeficiency virus type 1", "measurement.label": "Ratio", "result": "> 8.1"}
{"molecule": "CC(C)Sc1nc(O)cc(Cc2cccc3ccccc23)n1", "system.name": "Human immunodeficiency virus type 1", "measurement.label": "Ratio", "result": "> 300"}
{"molecule": "Cc1cccc(Cc2nc(SC3CCCCC3)nc(O)c2C)c1", "system.name": "Human immunodeficiency virus type 1", "measurement.label": "Ratio", "result": "> 500"}
{"molecule": "Oc1cc(CSc2ccccc2)nc(SC2CCCCC2)n1", "system.name": "Human immunodeficiency virus type 1", "measurement.label": "Ratio", "result": "> 9.4"}

Let's switch to this molecule now.
What does the record list as Ratio for Cc1c(O)nc(SC2CCCCC2)nc1Cc1cccc2ccccc12 ?
> 4.7
